Test: Phase 1 dose-escalation study: plasma pharmacokinetics
Type: in vivo, human
Details: human, plasma, oral; post-dose; read-out: Median tmax
reported-property: Tmax

Give the reported value of Tmax for this record: `CCn1c(=O)c(-c2ccn[nH]2)cc2c(C)nc(N)nc21`
1 to 3 h

###

Assay: Phase 1 dose-escalation study: plasma pharmacokinetics
Assay type: in vivo, human
Details: human, plasma, oral; at steady-state; read-out: Mean t1/2,z
reported-property: half-life

Give the reported value of half-life for this record: `CCn1c(=O)c(-c2ccn[nH]2)cc2c(C)nc(N)nc21`
3 to 9 h

Data origin: patent US20140296265A1
